Target Desc: Solute carrier family 2, facilitated glucose transporter member 1 (Homo sapiens) (UniProt P11166)
Sequence (P11166 whole entry): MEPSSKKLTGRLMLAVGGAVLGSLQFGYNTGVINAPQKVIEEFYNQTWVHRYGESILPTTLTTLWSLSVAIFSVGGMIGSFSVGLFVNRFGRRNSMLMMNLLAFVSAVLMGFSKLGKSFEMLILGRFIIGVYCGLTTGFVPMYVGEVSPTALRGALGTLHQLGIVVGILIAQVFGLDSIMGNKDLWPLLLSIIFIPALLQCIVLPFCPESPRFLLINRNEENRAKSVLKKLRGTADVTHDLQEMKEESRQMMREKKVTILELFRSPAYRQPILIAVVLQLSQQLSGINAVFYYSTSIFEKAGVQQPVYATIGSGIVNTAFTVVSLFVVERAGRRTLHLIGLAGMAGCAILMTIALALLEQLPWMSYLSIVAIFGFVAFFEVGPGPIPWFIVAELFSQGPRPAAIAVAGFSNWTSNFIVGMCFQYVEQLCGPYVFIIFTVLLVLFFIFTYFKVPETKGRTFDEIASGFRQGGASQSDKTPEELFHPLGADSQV
Measurement Description: ST_JUDE_LEISH: Cytotoxicity at 2uM final concentration against transgenic Leishmania Mexicana promastigotes LmGLUT1 that are glucose transport deficient and complemented with the human glucose transporter GLUT1. Activity is measured by DNA content using SYBR green in vitro
Format: functional
Please respond with reported inhibition for every item in the list.
Write the answer as a number in %, unit excluded.

Would you kindly share the measured inhibition for `Nc1nc(N)c2c(Oc3ccc(Cl)c(Cl)c3)cccc2n1` ? 0.48

Now the compound `Cc1cnc(C(=O)Nc2ccc3c(c2)CCCN(Cc2c[nH]c4cnccc24)C3)cn1` 11.1

Now the compound `COc1ccc2nccc([C@@H](O)CN3CCC(NCCc4c[nH]c5ccccc45)CC3)c2c1` 9.59

Now the compound `Cc1ccc(CN2CCN(c3cc4c(cc3Cl)CCN4C(=O)Cc3ccc(Cl)c(NC(=O)Nc4cccc(C#N)c4)c3)CC2)cc1` -1.29

Now the compound `Clc1ccc(-c2cc(-c3csc(NCCN4CCOCC4)n3)on2)c(Cl)c1` 12.4

Now the compound `O=c1cc(N2CCCNCC2)c(Cl)nn1Cc1ccc(NS(=O)(=O)c2ccc(Oc3ccccc3)cc2)cc1` 10.6

Now the compound `CCN(CC)CCNc1ccnc2[nH]c3ccc(C)cc3c12` 0.06

Now the compound `CCCCCCCN1CC[C@@H](CCCc2ccnc3ccc(OCCCCNC(N)=O)cc23)[C@@H](CC)C1` 2.24

Now the compound Cc1cccc2nc(-c3cccc(-c4ccc(NC(=O)C(C)C(=O)NC(C)C)cc4)c3)[nH]c12 (centres undefined) 0.75
